Tested on: biotinyl-Phe-oxazolone
assay-procedure: self-aminoacylation, catalytic enhancement (BFO) (fold over background); higher = more active; k-Seq, kA / k0A0; sequences stand for … in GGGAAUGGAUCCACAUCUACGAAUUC…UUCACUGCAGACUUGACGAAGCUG
Variants at the floor of the assay were thinned out.
Rule: self-aminoacylation of 2 or more gives 1.0; anything lower gives 0.0.

{"chain-sequence": "CCACUCUUCAACCAAUCGGUC [Fam1B.1 aminoacylation ribozyme variant]", "assigned-label": 1.0}
{"chain-sequence": "CUGCUUCAAACAAGCGGUCUG [Fam1A.1 aminoacylation ribozyme variant]", "assigned-label": 0.0}
{"chain-sequence": "CCAGACUCCAAGCAAUCGGUC [Fam1B.1 aminoacylation ribozyme variant]", "assigned-label": 1.0}
{"chain-sequence": "CCACACUUCAAUCAAUCGUUC [Fam1B.1 aminoacylation ribozyme variant]", "assigned-label": 0.0}
{"chain-sequence": "AAGUUUGCUGAUAGUCGUAAG [Fam3.1 aminoacylation ribozyme variant]", "assigned-label": 0.0}
{"chain-sequence": "AAGUUUGCUAAGAGUCGCAUG [Fam3.1 aminoacylation ribozyme variant]", "assigned-label": 0.0}
{"chain-sequence": "CCUCACUUCAAGCAACCGGUC [Fam1B.1 aminoacylation ribozyme variant]", "assigned-label": 0.0}
{"chain-sequence": "AGUCACCUAGGACAUCGGGUG [Fam2.2 aminoacylation ribozyme variant]", "assigned-label": 1.0}
{"chain-sequence": "AAGUUAGCUAAUGGUCGCAAG [Fam3.1 aminoacylation ribozyme variant]", "assigned-label": 0.0}
{"chain-sequence": "GCACACUGCAAGCAAUCGGUC [Fam1B.1 aminoacylation ribozyme variant]", "assigned-label": 0.0}
{"chain-sequence": "AAGUUUGCUAUUAGUCGCAAG [Fam3.1 aminoacylation ribozyme variant]", "assigned-label": 0.0}
{"chain-sequence": "AUUCCCCUGGUGAUCGAGUGA [Fam2.1 aminoacylation ribozyme variant]", "assigned-label": 1.0}
{"chain-sequence": "AUUCACCUGGGUCAUCUGGUG [Fam2.2 aminoacylation ribozyme variant]", "assigned-label": 1.0}
{"chain-sequence": "AUUACCCUGGCCAUCAAGUGA [Fam2.1 aminoacylation ribozyme variant]", "assigned-label": 0.0}
{"chain-sequence": "AUUACUCUGGUCAUCGUGUGA [Fam2.1 aminoacylation ribozyme variant]", "assigned-label": 1.0}
{"chain-sequence": "AUUACAAUGGUCAUCGAGUGA [Fam2.1 aminoacylation ribozyme variant]", "assigned-label": 1.0}
{"chain-sequence": "CUACUUCGUACAAUCGGUCUG [Fam1A.1 aminoacylation ribozyme variant]", "assigned-label": 0.0}
{"chain-sequence": "AAGUUUGCUAAUCGCCGCAAG [Fam3.1 aminoacylation ribozyme variant]", "assigned-label": 1.0}
